Reported values of % inhibition of phage binding by 100 nM IGF-1 for individual entries
test_system: T1, recombinant human IGFBP-3 (human, UniProt P17936 28-291)
T1 construct: biotinylated and held on a streptavidin chip in the ALS experiment
T1 sequence (P17936 28-291 limits assumed): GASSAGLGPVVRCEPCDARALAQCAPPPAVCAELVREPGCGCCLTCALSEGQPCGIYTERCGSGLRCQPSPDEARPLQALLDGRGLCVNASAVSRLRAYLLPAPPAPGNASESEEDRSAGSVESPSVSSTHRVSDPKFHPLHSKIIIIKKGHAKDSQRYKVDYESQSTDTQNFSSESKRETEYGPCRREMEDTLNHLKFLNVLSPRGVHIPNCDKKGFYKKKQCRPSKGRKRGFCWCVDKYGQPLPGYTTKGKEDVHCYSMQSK
method_notes: phage ELISA on IGFBP-3 plate, competitor IGF-1
endpoint_name: % inhibition of phage binding by 100 nM IGF-1

1) peptide-phage clone 4D3.11 (g8 display) (polyvalent on M13 phage) VAWEVCWDRHDQGYICTTDSGGGSGGGAEGDDPAKAAFNSLQASATEYIGYAWAMVVVIVGATIGIKLFKKFTSKAS ... 5%
2) peptide-phage clone 4D3.9 (g8 display) (polyvalent on M13 phage) ETVANCDCYMDLCLCYGSDRGGGSGGGAEGDDPAKAAFNSLQASATEYIGYAWAMVVVIVGATIGIKLFKKFTSKAS ... > 40%
3) peptide-phage clone 4D3.12 (g8 display) (polyvalent on M13 phage) AEWAECWIAGDQLLCVGKDNGGGSGGGAEGDDPAKAAFNSLQASATEYIGYAWAMVVVIVGATIGIKLFKKFTSKAS ... > 40%
4) peptide-phage clone 4D3.8 (g8 display) (polyvalent on M13 phage) SEEVCWPVAEWYLCNILGPGGGSGGGAEGDDPAKAAFNSLQASATEYIGYAWAMVVVIVGATIGIKLFKKFTSKAS ... > 40%
5) peptide-phage clone 4C3.2 (g8 display) (polyvalent on M13 phage) ELDGWVCIKVGEQNLCYLAEGGGSGGGAEGDDPAKAAFNSLQASATEYIGYAWAMVVVIVGATIGIKLFKKFTSKAS ... > 40%
